Molecular target: human α7 nAChR stably expressed in a HEK cell line (with human RIC-3) (Homo sapiens, UniProt P36544)
Construct: PrecisION hnAChR α7/RIC-3
Sequence (P36544 23-502): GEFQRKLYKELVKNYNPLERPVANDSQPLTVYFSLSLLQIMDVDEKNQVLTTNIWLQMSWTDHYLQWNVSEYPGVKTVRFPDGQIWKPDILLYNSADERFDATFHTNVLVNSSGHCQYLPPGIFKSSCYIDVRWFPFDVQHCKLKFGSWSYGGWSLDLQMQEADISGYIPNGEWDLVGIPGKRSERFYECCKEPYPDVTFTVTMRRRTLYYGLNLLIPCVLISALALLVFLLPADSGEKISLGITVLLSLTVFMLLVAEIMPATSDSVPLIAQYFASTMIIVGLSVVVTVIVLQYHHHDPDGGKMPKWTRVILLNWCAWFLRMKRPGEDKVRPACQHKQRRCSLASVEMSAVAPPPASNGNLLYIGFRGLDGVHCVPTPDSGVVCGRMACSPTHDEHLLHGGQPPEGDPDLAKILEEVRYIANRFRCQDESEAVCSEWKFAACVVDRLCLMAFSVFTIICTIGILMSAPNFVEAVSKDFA
Assay: Automated patch-clamp electrophysiology functional assay (Assay A), IonFlux HT, whole-cell population patch
Type: cell-based
Settings: automated patch-clamp electrophysiology functional assay (Assay A); potency class by EC50; read-out: α7 nAChR Potency
ENDPOINT: EC50

INSERT INTO results (molecule, result) VALUES
  ('CC1(C)[C@H](c2ccc(S(N)(=O)=O)cc2)[C@H]1c1nc(-c2ccccc2C(F)(F)F)no1 [Example A13]', '500 to 5000 nM'),
  ('CC1(C)[C@H](c2ccc(S(N)(=O)=O)cc2)[C@H]1c1nc(C2(c3ccccc3)CC2)no1 [Example B13]', '500 to 5000 nM'),
  ('NS(=O)(=O)c1ccc([C@H]2C[C@@H]2c2cnc(-c3ccccc3)s2)cc1 [Example L22]', '500 to 5000 nM'),
  ('CC1(C)[C@H](c2ccc(S(N)(=O)=O)cc2)[C@H]1c1nc(C2CC(F)(F)C2)no1 [Example B8]', '500 to 5000 nM'),
  ('CC1(C)[C@H](c2ccc(S(N)(=O)=O)cc2)[C@H]1c1nc(C2CCCC2)no1 [Example B9]', '500 to 5000 nM'),
  ('CC(C)(C)c1noc([C@@H]2[C@@H](c3ccc(S(N)(=O)=O)cc3)C2(F)F)n1 [Example B17]', '500 to 5000 nM'),
  ('CC1(C)[C@@H](c2ccc(S(N)(=O)=O)cc2)[C@@H]1c1nc(C2CCC2)no1 [Example D7]', '100 to 500 nM'),
  ('CC1(C)[C@H](c2ccc(S(N)(=O)=O)cc2)[C@H]1c1nc(-c2cccc(Br)c2)no1 [Example A14]', '500 to 5000 nM'),
  ('CC1(C)[C@@H](c2ccc(S(N)(=O)=O)cc2)[C@@H]1c1nnc(-c2cccc(F)c2)o1 [Example G3]', '500 to 5000 nM'),
  ('CC1(C)[C@H](c2ccc(S(N)(=O)=O)cc2)[C@H]1c1nc(C2CCCC2)co1 [Example J8]', '500 to 5000 nM'),
  ('CC(C)(C)c1coc([C@H]2[C@H](c3ccc(S(N)(=O)=O)cc3)C2(C)C)n1 [Example K7]', '500 to 5000 nM'),
  ('CC1(C)[C@@H](c2ccc(S(N)(=O)=O)cc2)[C@@H]1c1noc(-c2c[nH]c(C3CC3)n2)n1 [Example I8]', '500 to 5000 nM'),
  ('COc1ccc(Cl)cc1-c1noc([C@@H]2[C@@H](c3ccc(S(N)(=O)=O)cc3)C2(C)C)n1 [Example A1]', '500 to 5000 nM'),
  ('NS(=O)(=O)c1ccc([C@@H]2C[C@H]2c2nc(C3(c4ccccc4)CC3)no2)cc1 [Example D23]', '500 to 5000 nM'),
  ('CC1(C)[C@@H](c2ccc(S(N)(=O)=O)cc2)[C@@H]1c1noc(C2CCN(C3CC3)CC2)n1 [Example I9]', '500 to 5000 nM'),
  ('NS(=O)(=O)c1ccc([C@@H]2C[C@H]2c2nc(-c3cc(F)ccc3C(F)(F)F)no2)cc1 [Example C8]', '100 to 500 nM'),
  ('NS(=O)(=O)c1ccc([C@H]2C[C@@H]2c2nc(C3CCCCC3)no2)cc1 [Example B4]', '500 to 5000 nM'),
  ('CC1(C)[C@@H](c2ccc(S(N)(=O)=O)cc2)[C@@H]1c1noc(-c2cccc(OC(F)(F)C(F)F)c2)n1 [Example H14]', '100 to 500 nM'),
  ('CC(C)(F)c1noc([C@H]2[C@H](c3ccc(S(N)(=O)=O)cc3)C2(F)F)n1 [Example D35]', '100 to 500 nM'),
  ('CC(C)c1noc([C@@H]2[C@@H](c3ccc(S(N)(=O)=O)cc3)C2(C)C)n1 [Example B1]', '500 to 5000 nM'),
  ('CC(=O)N1CCC(c2noc([C@@H]3[C@@H](c4ccc(S(N)(=O)=O)cc4)C3(C)C)n2)CC1 [Example B16]', '500 to 5000 nM'),
  ('NS(=O)(=O)c1ccc([C@H]2[C@H](c3nc(-c4ccccc4)no3)C2(F)F)cc1 [Example C21]', '≤ 100 nM'),
  ('NS(=O)(=O)c1ccc([C@@H]2[C@@H](c3nsc(-c4ccccc4)n3)C2(F)F)cc1 [Example L13]', '500 to 5000 nM'),
  ('CC1(C)C(c2ccc(S(N)(=O)=O)c(F)c2)C1c1nc(-c2ccccc2)no1 (single isomer, unassigned; enantiomer a) [Example 32]', '500 to 5000 nM'),
  ('NS(=O)(=O)c1ccc([C@@H]2[C@@H](c3nc(C4CCCC4)no3)C2(F)F)cc1 [Example B19]', '100 to 500 nM'),
  ('CC1(C)[C@@H](c2ccc(S(N)(=O)=O)cc2)[C@@H]1c1nc(C2CC2)no1 [Example D9]', '100 to 500 nM'),
  ('CC(C)Oc1ccc(Cl)cc1-c1noc([C@H]2[C@H](c3ccc(S(N)(=O)=O)cc3)C2(C)C)n1 [Example C3]', '5000 to 50000 nM'),
  ('CC(C)c1nnc([C@H]2[C@H](c3ccc(S(N)(=O)=O)cc3)C2(C)C)o1 [Example G9]', '500 to 5000 nM'),
  ('CC1(C)[C@@H](c2ccc(S(N)(=O)=O)cc2)[C@@H]1c1noc(-c2cc(C(F)(F)F)c3ccccc3n2)n1 [Example I13]', '500 to 5000 nM'),
  ('CC(C)c1nsc(C2CC2c2ccc(S(N)(=O)=O)cc2)n1 (single isomer, unassigned; enantiomer b) [Example 18]', '100 to 500 nM');
